Kindly supply the reported pIC50 values for the records listed here.
target-or-test-system: Protease (Human T-cell leukemia virus type I, UniProt Q82134, L40I)
Sequence (Q82134 entry or part of it L40I): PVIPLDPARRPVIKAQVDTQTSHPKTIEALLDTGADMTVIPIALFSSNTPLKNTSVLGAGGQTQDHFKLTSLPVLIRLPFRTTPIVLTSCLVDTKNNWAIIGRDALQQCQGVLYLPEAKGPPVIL
experiment: Inhibition of HTLV-1 recombinant protease L40I mutant
Numbered stars: 1 amine (or outer) side, 2 acyl side, 3 side chain; on linkers, the order of the positions; unused ones are H or OH. Square brackets hold non-standard residues; d marks the D form. Peptide text beside a SMILES is read from it. * marks the point of attachment. X1 = O=C([C@@H](O)[C@H](Cc1ccccc1)N[*:1])[*:2]; Thz(5,5-Me2) = CC1(C)SCN[C@@H]1C(=O)O; Phg = N[C@H](C(=O)O)c1ccccc1; Tle = CC(C)(C)[C@H](N)C(=O)O; NHCH2tBu = CC(C)(C)CN*
One number for each entry, as −log10 of the molar value.

>>> measured_value("COC(=O)N[C@H](C(=O)N[C@H](C(=O)N[C@@H](Cc1ccccc1)[C@H](O)C(=O)N1CSC(C)(C)[C@H]1C(=O)NCC(C)(C)C)C(C)(C)C)c1ccccc1")
8.14
>>> measured_value("CC(C)(C)CNC(=O)[C@H]1N(C(=O)[C@@H](O)[C@H](Cc2ccccc2)NC(=O)[C@@H](NC(=O)[C@@H](NC(=O)CN)c2ccccc2)C(C)(C)C)CSC1(C)C (H-G[Phg][Tle][X1][Thz(5,5-Me2)]-NHCH2tBu)")
7.39

Consider now this further compound.
Field pIC50 (entry `COC(=O)N[C@H](C(=O)N[C@H](C(=O)N[C@@H](Cc1ccccc1)[C@H](O)C(=O)N1CSC(C)(C)[C@H]1C(=O)NNC(C)(C)C)C(C)(C)C)c1ccccc1` ) reads 7.98

###

Can you tell me IC50 for the items I'm about to list?
target-or-test-system: Protease (Human T-cell leukemia virus type I, UniProt Q82134, L40I)
experiment: Inhibition of HTLV-1 recombinant protease L40I mutant
Give bare numbers, in nM.

Provide IC50 values for the following items, in order.
1. CC(C)(C)CNC(=O)[C@H]1N(C(=O)[C@@H](O)[C@H](Cc2ccccc2)NC(=O)[C@@H](NC(=O)[C@@H](NC(=O)CCN)c2ccccc2)C(C)(C)C)CSC1(C)C
2. CC(C)(C)CNC(=O)[C@H]1N(C(=O)[C@@H](O)[C@H](Cc2ccccc2)NC(=O)[C@@H](NC(=O)[C@@H](NC(=O)CCCN)c2ccccc2)C(C)(C)C)CSC1(C)C
3. CCN[C@H](C(=O)N[C@H](C(=O)N[C@@H](Cc1ccccc1)[C@H](O)C(=O)N1CSC(C)(C)[C@H]1C(=O)NCC(C)(C)C)C(C)(C)C)c1ccccc1
4. COC(=O)N[C@H](C(=O)N[C@H](C(=O)N[C@@H](Cc1ccccc1)[C@H](O)C(=O)N1CSC(C)(C)[C@H]1C(=O)NCC(C)(C)O)C(C)(C)C)c1ccccc1
5. CN[C@H](C(=O)N[C@H](C(=O)N[C@@H](Cc1ccccc1)[C@H](O)C(=O)N1CSC(C)(C)[C@H]1C(=O)NCC(C)(C)C)C(C)(C)C)c1ccccc1

1. 5.7
2. 25.4
3. 25.5
4. 39.1
5. 31.4
